From: the supplement of paper PMC9170038

# Test system: MS2 coat protein
# assay-name: apparent KD of MS2 coat protein; designed switch direction (-1 OFF switch, 1 ON switch): 1; higher = weaker reporter binding
# test-conditions: Eterna round: R95; input ligand: none
measurement-name: apparent KD of MS2 coat protein
Put your answer as a value accompanied by its unit after it.

Exercise: GET /values?readout=apparent KD of MS2 coat protein&item= GGCGCGGUCUCGCAGGAUAUCCACAAUCCUACAUGAGGAUCACCCAUGUCGCUGCAGGAUAUUAGGGAGAAGGGUGAUGCCGCGG [Bereri] (puzzle: Same State 2)
Solution: 41.6 nM

Exercise: Give its apparent KD of MS2 coat protein value. Item: CCGCGGGUAUCACAGGAUAUACUCAUAAUUACAUGAGGAUCACCCAUGUGACGGAAUUCCGGUGCGUAGAAGGGUGAUGGACCGC [Onquorbe] (puzzle: Same State 2)
Solution: 65.7 nM

Exercise: Give the measured apparent KD of MS2 coat protein of GAGAGAGGAAGCGAGGAUAUCGUGUUGAGUACAUGAGGAUCACCCAUGUUGUAGGUAGAGGUAGGCGAGAAGGCGCAGGAGAGGU [JR_SS2_Sub098] (puzzle: Same State 2) .
Solution: 122 nM

Exercise: Reported apparent KD of MS2 coat protein, sequence AAGACAAGCUUUAUGUUCUUCCUAUUCCAACAUGAGGAUCACCCAUGUAGUCUGACGAUUGUGAGUGUAGUUGAGAU [JR_SHM208A_Sub027] (puzzle: Sensor for hsa-mir-208a) : ____
Solution: 76.5 nM
